assay: Lipophilicity, logD of the compound at pH 6.8; type: physicochemical; conditions: buffer
observationType: logD

                             smilesnotation  readoutvalue
0  CCOC[C@@H](CC(C)C)NC(=O)[C@@H]1CNC[C@H](C(=O)N(c2cc(OC)c(C(C)C)cn2)C2CC2)[C@@H]1O          0.93
1  CCOC[C@@H](CC(C)C)NC(=O)[C@@H]1CNC[C@H](C(=O)N(c2cc(OC)c(C(C)C)cn2)C2CC2)C1           2.2
2  CCOC[C@@H](CC(C)C)NC(=O)[C@@H]1CNC[C@H](C(=O)N(c2ccc(C(C)C)cn2)C2CC2)C1           4.9
3  CCOC[C@@H](CC(C)C)NC(=O)[C@@H]1CNC[C@H](C(=O)N(c2cc(OCC)c(CC)cn2)C2CC2)C1           2.1
4  CCOC[C@@H](CC(C)C)NC(=O)[C@@H]1CNC[C@H](C(=O)N(c2ccc(C(C)C)cn2)C2CC2)[C@@H]1O          0.93
5  CCOC[C@@H](CC(C)C)NC(=O)[C@@H]1CNC[C@H](C(=O)N(c2cc(OCC)c(CC)cn2)C2CC2)[C@@H]1O          0.93

###

test: Clearance in human liver microsomes; format: ADME; settings: read-out: CLH
observationType: microsomal CLint (µL/min/mg)

                             smilesnotation  valuerelationsign  readoutvalue
0  CCOC[C@@H](CC(C)C)NC(=O)[C@@H]1CNC[C@H](C(=O)N(c2cc(OCC)c(CC)cn2)C2CC2)C1                  =            46
1  CCOC[C@@H](CC(C)C)NC(=O)[C@@H]1CNC[C@H](C(=O)N(c2ccc(C(C)C)cn2)C2CC2)[C@@H]1O                  <           3.4
2  COCCCn1cc(CN(C(=O)[C@H]2CNC[C@@H](C(=O)NCCC(C)C)C2)C2CC2)c2ccccc21                  =           194
3  COCCCn1cc(CN(C(=O)[C@H]2CNC[C@@H](C(=O)N[C@@H](CO)CC(C)C)C2)C2CC2)c2ccccc21                  =           157

###

molecular target: Cathepsin D (Homo sapiens); assay: Inhibition of human recombinant procathepsin D expressed in SF9 cells using fluorescence-quenched Ac-E-D(EDANS)-KPILFFRLG-K(Dabcyl)-E-Amid substrate by fluorimetric assay
Sequence (P07339 65-162 limits assumed): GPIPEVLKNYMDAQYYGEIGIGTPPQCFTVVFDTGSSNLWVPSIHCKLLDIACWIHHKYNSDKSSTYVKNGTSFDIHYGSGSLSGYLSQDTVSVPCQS
Sequence (P07339 169-412 limits assumed): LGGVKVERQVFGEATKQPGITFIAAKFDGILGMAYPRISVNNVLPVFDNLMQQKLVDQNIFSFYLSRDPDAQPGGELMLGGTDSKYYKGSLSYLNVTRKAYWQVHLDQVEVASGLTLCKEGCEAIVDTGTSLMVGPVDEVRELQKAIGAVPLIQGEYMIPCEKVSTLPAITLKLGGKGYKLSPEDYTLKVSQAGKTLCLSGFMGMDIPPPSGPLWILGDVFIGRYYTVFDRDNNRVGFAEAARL
pIC50: −log10 of the molar value.
observationType: pIC50

                             smilesnotation                testedtarget  observationtype  readoutvalue
0  CCOC[C@@H](CC(C)C)NC(=O)[C@@H]1CNC[C@H](C(=O)N(c2ccc(C(C)C)cn2)C2CC2)[C@@H]1O  Cathepsin D (Homo sapiens)            pIC50        < 4.52

###

experiment: Clearance in Sprague-Dawley rat at 2 mg/kg, iv; type: ADME, organism-based; design: dose 2 mg/kg, route intravenous; details: in vivo
Where clearance equals or exceeds 60 mL/min/kg, the correct label is criterion met; where it does not, the label is criterion not met.

>>> df
                             smilesnotation              class
0  CCOC[C@@H](CC(C)C)NC(=O)[C@@H]1CNC[C@H](C(=O)N(c2ccc(C(C)C)cn2)C2CC2)[C@@H]1O.O=C(O)CCC(=O)O  criterion not met
1  CCOC[C@@H](CC(C)C)NC(=O)[C@@H]1CNC[C@H](C(=O)N(c2cc(OC)c(C(C)C)cn2)C2CC2)[C@@H]1O  criterion not met
2  CCOC[C@@H](CC(C)C)NC(=O)[C@@H]1CNC[C@H](C(=O)N(c2cc(OCC)c(CC)cn2)C2CC2)[C@@H]1O.O=C(O)/C=C/C(=O)O  criterion not met
3  CCOC[C@@H](CC(C)C)NC(=O)[C@@H]1CNC[C@H](C(=O)N(c2cc(OCCCOC)c(C(C)C)cn2)C2CC2)C1.Cl      criterion met
4  CCOC[C@@H](CC(C)C)NC(=O)[C@@H]1CNC[C@H](C(=O)N(c2cc(OC)c(C(C)C)cn2)C2CC2)C1.O=C(O)C(O)C(O)C(=O)O  criterion not met
5  CCOC[C@@H](CC(C)C)NC(=O)[C@@H]1CNC[C@H](C(=O)N(c2cc3c(cc2F)OC(C)(C)C(=O)N3CCCOC)C2CC2)C1.Cl      criterion met
6  CCOC[C@@H](CC(C)C)NC(=O)[C@@H]1CNC[C@H](C(=O)N(c2cc(OCC)c(CC)cn2)C2CC2)C1.O=C(O)C(O)C(O)C(=O)O  criterion not met

###

experiment: Clearance in rat liver microsomes; type: ADME; conditions: read-out: CLH
Listed next: entries and their corresponding microsomal CLint.
observationType: microsomal CLint

In [3]: df
Out[3]:
                              smilesnotation   readoutvalue
 0  CCOC[C@@H](CC(C)C)NC(=O)[C@@H]1CNC[C@H](C(=O)N(c2cc(OCC)c(CC)cn2)C2CC2)C1   62 µL/min/mg
 1  CCOC[C@@H](CC(C)C)NC(=O)[C@@H]1CNC[C@H](C(=O)N(c2cc(OCCCOC)c(C(C)C)cc2F)C2CC2)C1  214 µL/min/mg
 2  CCOC[C@@H](CC(C)C)NC(=O)[C@@H]1CNC[C@H](C(=O)N(c2ccc(C(C)C)cn2)C2CC2)C1   13 µL/min/mg
 3  CCOC[C@@H](CC(C)C)NC(=O)[C@@H]1CNC[C@H](C(=O)N(c2cc(OC)c(C(C)C)cn2)C2CC2)[C@@H]1O  142 µL/min/mg
 4  COCCCn1cc(CN(C(=O)[C@H]2CNC[C@@H](C(=O)Nc3c(C)cccc3OC)C2)C2CC2)c2ccccc21  533 µL/min/mg
 5  CCOC[C@@H](CC(C)C)NC(=O)[C@@H]1CNC[C@H](C(=O)N(c2ccc(C(C)C)cn2)C2CC2)[C@@H]1O   52 µL/min/mg
 6  CCOC[C@@H](CC(C)C)NC(=O)[C@@H]1CNC[C@H](C(=O)N(c2cc(OC)c(C(C)C)cn2)C2CC2)C1  101 µL/min/mg
 7  CCOC[C@@H](CC(C)C)NC(=O)[C@@H]1CNC[C@H](C(=O)N(c2cc3c(cc2F)OC(C)(C)C(=O)N3CCCOC)C2CC2)C1.Cl  198 µL/min/mg
 8  COCCCn1cc(CN(C(=O)[C@H]2CNC[C@@H](C(=O)N[C@H](CCO)c3ccccc3)C2)C2CC2)c2ccccc21  109 µL/min/mg
 9  COCCCn1cc(CN(C(=O)[C@H]2CNC[C@@H](C(=O)N[C@@H](CO)CC(C)C)C2)C2CC2)c2ccccc21  111 µL/min/mg
10  CCOC[C@@H](CC(C)C)NC(=O)[C@@H]1CNC[C@H](C(=O)N(c2ccc(C(C)C)c(OCCCOC)n2)C2CC2)C1  252 µL/min/mg
11  CCOC[C@@H](CC(C)C)NC(=O)[C@@H]1CNC[C@H](C(=O)N(c2cc(OCC)c(CC)cn2)C2CC2)[C@@H]1O   54 µL/min/mg
12  COCCCn1cc(CN(C(=O)[C@H]2CNC[C@@H](C(=O)NCCC(C)C)C2)C2CC2)c2ccccc21  141 µL/min/mg
13  CCOC[C@@H](CC(C)C)NC(=O)[C@@H]1CNC[C@H](C(=O)N(c2cc(OCCCOC)c(C(C)C)cn2)C2CC2)C1.Cl   96 µL/min/mg

###

Biological target: Renin (Homo sapiens)
Sequence (P00797 whole entry): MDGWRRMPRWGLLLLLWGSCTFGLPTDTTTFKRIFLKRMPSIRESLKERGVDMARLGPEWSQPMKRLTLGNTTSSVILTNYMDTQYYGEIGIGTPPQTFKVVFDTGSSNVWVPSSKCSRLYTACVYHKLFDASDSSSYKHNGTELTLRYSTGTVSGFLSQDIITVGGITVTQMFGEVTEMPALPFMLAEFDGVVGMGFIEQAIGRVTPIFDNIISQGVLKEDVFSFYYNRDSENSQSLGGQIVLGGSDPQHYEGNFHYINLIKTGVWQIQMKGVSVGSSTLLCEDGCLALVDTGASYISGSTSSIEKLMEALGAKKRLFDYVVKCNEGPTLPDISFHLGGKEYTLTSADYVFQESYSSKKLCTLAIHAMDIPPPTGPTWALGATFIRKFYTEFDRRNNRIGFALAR
Assay: Inhibition of human recombinant renin using fluorescence-quenched RE(EDANS)IHPFHLVIHTK(Dabcyl)R substrate by fluorimetric assay
pIC50: −log10 of the molar value.
observationType: pIC50

>>> print(df.to_string())
                                   molecule  observationtype  readoutvalue
0  Cc1ccc(S(=O)(=O)N[C@@H]2CNC[C@H](C(=O)N(Cc3cccc(Cl)c3Cl)C3CC3)C2)cc1 (racemic)            pIC50          5.59
1  COCCCn1cc(CN(C(=O)[C@H]2CNC[C@@H](C(=O)N[C@@H](CO)CC(C)C)C2)C2CC2)c2ccccc21            pIC50          8.52
2  CCOC[C@@H](CC(C)C)NC(=O)[C@@H]1CNC[C@H](C(=O)N(c2ccc(C(C)C)c(OCCCOC)n2)C2CC2)C1            pIC50          9.10
3  COCCCn1cc(CN(C(=O)[C@H]2CNC[C@@H](NC(=O)CC(C)C)C2)C2CC2)c2ccccc21 (racemic)            pIC50          6.52
4  CCOC[C@@H](CC(C)C)NC(=O)[C@@H]1CNC[C@H](C(=O)N(c2ccc(C(C)C)cn2)C2CC2)[C@@H]1O            pIC50          9.70
5  COCCCn1cc(CN(C(=O)[C@H]2CNC[C@@H](C(=O)NCCC(C)C)C2)C2CC2)c2ccccc21            pIC50          8.52
6  CCOC[C@@H](CC(C)C)NC(=O)[C@@H]1CNC[C@H](C(=O)N(c2cc(OCCCOC)c(C(C)C)cc2F)C2CC2)C1            pIC50          9.52
7  CCOC[C@@H](CC(C)C)NC(=O)[C@@H]1CNC[C@H](C(=O)N(c2ccc(C(C)C)cc2)C2CC2)C1            pIC50          8.40

Source listed as ChEMBL document CHEMBL3352242.
